# measurementProtocol: physchem
# statedConditions: octan-1-ol/water, pH 7.4, LogD7.4
recordedMetric: logD
# print the numeric value only

Ask | Can you look up the measured logD of Cn1cc(C#N)cc1-c1c2c(=O)n(C)c(=O)n(CC3CC3)c2nn1Cc1ccnc2ccc(Cl)cc12 for me?
Reply | 3.67

Ask | Next record, please: Cc1cc(CNc2ncc(Cl)c(Nc3cc(C)[nH]n3)n2)on1
Reply | 2.68

Ask | Check C[C@H](NC(=O)Cc1cc(F)cc(F)c1)C(=O)NC1C(=O)N(C)c2ccccc2-c2ccccc21 (stereo not given in full) too.
Reply | 3.6

Ask | Repeat for the following compound: C(=C\c1c(-c2ccccc2)nc2sccn12)/c1ccncn1
Reply | 3.4

Ask | And for O=c1[nH]c2c(O)ccc([C@@H](O)CNCCCSCCNCCc3cccc(Cl)c3)c2s1 ?
Reply | 1.06
